Target: human histamine H4 receptor (Homo sapiens, UniProt Q9H3N8)
Construct: expressed in transfected cells; host or cells: SK-N-MC cells or COS7 cells, transiently transfected; membrane preparation
Sequence (Q9H3N8 whole entry): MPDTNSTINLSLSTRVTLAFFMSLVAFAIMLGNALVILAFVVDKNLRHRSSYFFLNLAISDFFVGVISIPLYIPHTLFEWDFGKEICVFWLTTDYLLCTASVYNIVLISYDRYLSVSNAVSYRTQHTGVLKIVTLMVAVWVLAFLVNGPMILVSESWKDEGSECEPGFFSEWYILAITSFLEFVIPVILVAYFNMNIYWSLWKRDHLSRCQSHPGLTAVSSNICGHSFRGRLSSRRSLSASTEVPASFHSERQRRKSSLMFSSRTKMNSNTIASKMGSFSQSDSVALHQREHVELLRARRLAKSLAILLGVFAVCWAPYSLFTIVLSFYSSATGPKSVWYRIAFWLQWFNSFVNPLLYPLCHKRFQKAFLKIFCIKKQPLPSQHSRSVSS
Assay: Binding assay on recombinant human histamine H4 receptor (3H-histamine displacement)
Settings: Table 1; competition with 3H-histamine, Cheng-Prusoff, KD 5 nM, ligand 5 nM; read-out: Ki
Experimental: Binding Assay on Recombinant Human Histamine H4 Receptor SK-N-MC cells or COS7 cells were transiently transfected with pH4R and grown in 150 cm^2 tissue culture dishes. Cells were washed with saline solution, scraped with a cell scraper and collected by centrifugation (1000 rpm, 5 min). […] Filters were then dried, mixed with scintillant and counted for radioactivity. […]
List of log10 Ki values.
value kind: log10 Ki (log10 of the value in nM)

molecule	value kind	measured value
Cc1cccc2nc(N3CCN(CCO)CC3)c(=O)[nH]c12 [Example 7]	log10 Ki	2.93
CN1CCN(c2nc3cc(C(F)(F)F)ccc3[nH]c2=O)CC1 [Example 12]	log10 Ki	1.38
CN1CCN(c2nc3cc(F)c(F)cc3[nH]c2=O)CC1 [Example 17]	log10 Ki	1.87
CC1CN(c2nc3ccccc3[nH]c2=O)CCN1 (centres unmarked) [Example 6]	log10 Ki	2.83
O=c1[nH]c2c(F)c(F)ccc2nc1N1CCNCC1 [Example 4]	log10 Ki	2.63
Cc1cc2[nH]c(=O)c(N3CCN(C)CC3)nc2cc1Cl [Example 20]	log10 Ki	1.92
CN1CCCN(c2nc3cc(Cl)c(Cl)cc3[nH]c2=O)CC1 [Example 16]	log10 Ki	3.21
CN1CCN(c2nc3ccc(F)c(F)c3[nH]c2=O)CC1 [Example 22]	log10 Ki	1.48

---

List of pKi values.
Biological target: human histamine H4 receptor (Homo sapiens, UniProt Q9H3N8)
Construct: expressed in transfected cells; host or cells: SK-N-MC cells or COS7 cells, transiently transfected; membrane preparation
Test: Binding assay on recombinant human histamine H4 receptor (3H-histamine displacement)
Details: read-out: Ki
pKi: −log10 of the molar value.

molecule	measured target	pKi
Cc1cccc2nc(N3CCNCC3)c(=O)[nH]c12 [Example 2]	human histamine H4 receptor (Homo sapiens, UniProt Q9H3N8)	7.80
CN1CCN(c2nc3cc(Cl)ccc3[nH]c2=O)CC1 [Example 9]	human histamine H4 receptor (Homo sapiens, UniProt Q9H3N8)	7.08
Cc1cccc2nc(N3CCN(C)CC3)c(=O)[nH]c12 [Example 1]	human histamine H4 receptor (Homo sapiens, UniProt Q9H3N8)	8.22
CN1CCN(c2nc3ccc(Cl)cc3[nH]c2=O)CC1 [Example 10]	human histamine H4 receptor (Homo sapiens, UniProt Q9H3N8)	7.51
O=c1[nH]c2cc(Cl)c(Cl)cc2nc1N1CCNCC1 [Example 15]	human histamine H4 receptor (Homo sapiens, UniProt Q9H3N8)	7.25
CN1CCN(c2nc3cc(F)ccc3[nH]c2=O)CC1 [Example 21]	human histamine H4 receptor (Homo sapiens, UniProt Q9H3N8)	7.41
Cc1cccc2nc(N3CCNC(C)C3)c(=O)[nH]c12 (stereo not shown) [Example 5]	human histamine H4 receptor (Homo sapiens, UniProt Q9H3N8)	7.40
